- Tested Target: T1, human PD-L1-Fc (human, UniProt Q9NZQ7 19-239)
- T1 construct: also called hPD-L1-Fc; human PD-L1-Fc (Sino Biological, 70110-D02H); not shown: Fc part
- T1 sequence (Q9NZQ7 19-239 limits assumed): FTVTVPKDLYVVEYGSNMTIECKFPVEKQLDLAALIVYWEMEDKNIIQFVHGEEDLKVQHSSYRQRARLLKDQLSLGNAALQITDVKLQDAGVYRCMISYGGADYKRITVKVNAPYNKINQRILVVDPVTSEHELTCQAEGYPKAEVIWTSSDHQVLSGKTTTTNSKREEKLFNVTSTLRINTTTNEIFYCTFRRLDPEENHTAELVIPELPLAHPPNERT
- Protocol Description: BLI; PD-L1-Fc loaded on the sensor, scFv in solution
Readout Kind: Kd (nM)
Just the number in nM, nothing appended.

Prompt: Please report the recorded Kd for 4B6 scFv variant L-CDR2-3 (scFv, also called 4B6-L-CDR2-3) scFv: DIQMTQSPSSLSASVGDRVTITCKASQNVGAAVAWYQQKPGKAPKLLIYSVSDRYTGVPSRFSGSGSGTDFTLTISSLQPEDIATYYCQQYSNYPTFGQGTKLEIKGGGGSGGGGSGGGGSQVQLVQSGAEVKKPGASVKVSCKASGYVFTDYYMNWVRQAPGQSLEWMGDINPNNAGTSYNHKFKGRVTVTVDKSISTAYMELSRLRSDDTAVYYCVKWGDGPFAYWGQGTLVTVSS .
Completion: 4.37
